Values compiled from ChEMBL document CHEMBL4665656.

test system: HT-29; test: Cytotoxicity in human HT-29 cells assessed as growth inhibition incubated for 24 hrs by MTT assay; type: functional, cell-based; conditions: HT-29, 24 h
For each record, write down the corresponding pIC50.
Give bare numbers, as −log10 of the molar value.

Some solved entries appear below for comparison.
{"COMPOUND": "CSCC[C@H](NP(O)(=S)c1ccccc1)C(=O)O (some centres not stated)", "TARGET OR TEST SYSTEM": "HT-29", "pIC50": 3.08}
{"COMPOUND": "S=P1(c2ccccc2)NCCN1", "TARGET OR TEST SYSTEM": "HT-29", "pIC50": 3.11}
{"COMPOUND": "S=P1(c2ccccc2)OCCO1", "TARGET OR TEST SYSTEM": "HT-29", "pIC50": 3.05}

Return reported pIC50 values for all items listed beneath this line.
1. O=C([O-])CNP([O-])(=S)c1ccccc1.[Li+].[Li+] (configuration not stated)
2. O=c1[nH]cc(F)c(=O)[nH]1

Solution:
1: 3.04; 2: 3.84

Return reported pIC50 values for all items listed beneath this line.
1. S=P1(c2ccccc2)OCCCO1
2. O=C(O)[C@@H]1CCCN1P(O)(=S)c1ccccc1 (some centres not stated)
3. CC(C)C[C@H](NP(O)(=S)c1ccccc1)C(=O)O (some centres not stated)

Solution:
[3.00, 3.03, 3.12]
